What IC50 was measured for each of the following?
- system-name: PD-1/PD-L1 (Homo sapiens)
- Sequence (Q9NZQ7 19-238 limits assumed): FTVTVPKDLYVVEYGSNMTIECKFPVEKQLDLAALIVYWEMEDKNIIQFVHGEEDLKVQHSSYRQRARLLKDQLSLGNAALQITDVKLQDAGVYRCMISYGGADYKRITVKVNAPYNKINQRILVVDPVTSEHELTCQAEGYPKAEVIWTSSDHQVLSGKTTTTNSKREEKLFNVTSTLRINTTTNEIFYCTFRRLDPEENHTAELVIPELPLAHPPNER
- experiment-description: PD-1/PD-L1 biochemical protein-protein interaction assay (ALPHA)
- condition: 0.3 nM His tagged PD-L1, 2.5 nM biotinylated Fc-PD-1, 60 minutes at 25° C., read-out: IC50 PD-L1-PD-1 Alpha IC50-mono PD-L1-fcP-D1
Phrase the answer as number then unit, nothing more needed.

Reference set, count: 2
>  <compound>
Cc1c(COc2cc(OCc3cncc(C#N)c3)c(CN[C@@](C)(CO)C(=O)O)cc2Cl)cccc1-c1cccc(-c2ccc(OCCNC[C@H]3CCC(=O)N3)cc2)c1C

>  <measurement-type>
IC50

>  <reported-result>
64 pM

$$$$
>  <compound>
COc1nc(O[C@H]2CCc3c(-c4cccc(-c5ccc(C6=N[C@@H](C)CN6)c(OC)n5)c4Cl)cccc32)c(Br)cc1CN1CC[C@H](O)[C@H](F)C1

>  <measurement-type>
IC50

>  <reported-result>
1310 pM

$$$$

For each entry beneath this line, provide reported IC50.
1. C[C@](CO)(NCc1cc(Br)c(OCc2cccc(-c3cccc(-c4ccc5c(c4)C[C@@H](N)C5)c3Cl)c2Cl)nc1OCc1cncc(C#N)c1)C(=O)O
2. COc1nc(-c2cccc(-c3cccc4c3CC[C@@H]4Oc3nc(OCc4cncc(C#N)c4)c(CN[C@@](C)(CO)C(=O)O)cc3Cl)c2Cl)ccc1CN1CC2(CCC(=O)N2)C1
3. Cc1c(COc2cc(OCc3cncc(C#N)c3)c(CNCCO)cc2Cl)cccc1-c1cccc(COc2cc(OCc3cncc(C#N)c3)c(CNC[C@@H](O)CC(=O)O)cc2Cl)c1C
4. CC(C)(NCc1cc(Cl)c(O[C@H]2CCc3c(-c4cccc(-c5ccc(OCCN6CC[C@@H](O)C6)cc5)c4Cl)cccc32)nc1OCc1cncc(C#N)c1)C(=O)O
5. C[C@@](CO)(NCc1cc(Cl)c(O[C@H]2CCc3c(-c4cccc5c4CC[C@@H]5Oc4nc(OCc5cncc(S(C)(=O)=O)c5)c(CN5CC[C@@H](O)C5)cc4Cl)cccc32)nc1OCc1cncc(S(C)(=O)=O)c1)C(=O)O

Result:
101 pM
64 pM
2000 pM
64 pM
412 pM

For each entry beneath this line, provide reported IC50.
1. COc1nc(O[C@H]2CCc3c(-c4cccc(-c5nc6cc(CNCCO)ccn6n5)c4Cl)cccc32)c(Cl)cc1CNCCO
2. COc1nc(O[C@H]2CCc3c(-c4cccc(-c5cnc(CNC[C@@H]6CCC(=O)N6)c(OC)n5)c4Cl)cccc32)c(Cl)cc1CN[C@@H]1CCC[C@@H]1O
3. Cc1c(COc2cc(OCc3cncc(C#N)c3)c(CN[C@@](C)(CO)C(=O)O)cc2Cl)cccc1-c1cccc(-c2ccc3c(c2)OCC3N(C)C)c1C (some centres unmarked)
4. CS(=O)(=O)c1cncc(COc2nc(O[C@H]3CCc4c(-c5cccc(-c6ccc(OCCNCCO)cc6)c5Cl)cccc43)c(Cl)cc2CNC[C@@H](O)CC(=O)O)c1

Result:
1: 64 pM; 2: 2360 pM; 3: 346 pM; 4: 64 pM
